System: Magnusiomyces capitatus
Assay protocol: Antifungal activity against Dipodascus capitatus after 48 hrs by Etest
Type: functional
Observable: MIC90 (µg/mL)

Molecule	Observable	Assay result
OC(Cn1cncn1)(Cn1cncn1)c1ccc(F)cc1F [FLUCONAZOLE]	MIC90	4
C[C@@H](c1nc(-c2ccc(C#N)cc2)cs1)[C@](O)(Cn1cncn1)c1cc(F)ccc1F [ISAVUCONAZOLE]	MIC90	1
CC[C@@H]([C@H](C)O)n1ncn(-c2ccc(N3CCN(c4ccc(OC[C@@H]5CO[C@@](Cn6cncn6)(c6ccc(F)cc6F)C5)cc4)CC3)cc2)c1=O [POSACONAZOLE]	MIC90	0.5
C[C@@H](c1ncncc1F)[C@](O)(Cn1cncn1)c1ccc(F)cc1F [VORICONAZOLE]	MIC90	0.06
